biological target: Potassium voltage-gated channel subfamily KQT member 1 (Homo sapiens) (UniProt P51787); assay: KCNQ1 potassium channel potentiators, confirmation, FluxOR thallium flux, CHO cells, duplicates (AID 493007); settings: KCNQ1 cell line, FluxOR thallium flux fluorescence, at 10 µM, % of reference activator effect, buffer zero
Sequence (P51787 whole entry, looked up): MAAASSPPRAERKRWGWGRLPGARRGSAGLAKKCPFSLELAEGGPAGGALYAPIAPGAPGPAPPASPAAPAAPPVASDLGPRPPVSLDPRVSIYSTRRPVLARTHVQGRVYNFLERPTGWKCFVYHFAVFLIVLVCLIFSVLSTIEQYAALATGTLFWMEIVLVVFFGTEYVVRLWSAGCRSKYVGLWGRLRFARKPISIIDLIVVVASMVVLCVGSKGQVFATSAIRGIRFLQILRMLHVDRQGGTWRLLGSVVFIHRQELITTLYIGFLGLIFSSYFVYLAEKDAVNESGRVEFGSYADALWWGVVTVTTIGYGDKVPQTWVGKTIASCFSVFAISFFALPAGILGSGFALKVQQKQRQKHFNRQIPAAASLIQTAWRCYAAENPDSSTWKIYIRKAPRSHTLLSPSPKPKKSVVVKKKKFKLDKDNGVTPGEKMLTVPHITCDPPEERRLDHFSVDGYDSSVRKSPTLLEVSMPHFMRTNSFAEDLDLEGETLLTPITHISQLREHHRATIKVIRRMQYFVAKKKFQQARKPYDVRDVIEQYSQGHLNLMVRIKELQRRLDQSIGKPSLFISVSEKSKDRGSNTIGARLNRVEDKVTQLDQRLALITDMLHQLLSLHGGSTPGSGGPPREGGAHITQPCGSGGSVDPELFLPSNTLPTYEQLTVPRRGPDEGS
Activity calls are given as the source filed them.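 How the source made its calls: active means potentiation averaged over duplicate wells exceeding buffer-only control mean by more than 3 SD; inactive means the rest.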
Respond with a class label; see Yes for active, No for inactive

Recorded results for 2 compounds are shown here.
CCOc1ccc2nc(/N=C/c3c(C)[nH]n(-c4ccc(C)cc4)c3=O)sc2c1    Yes
Cn1c(=O)c2c3c(sc2n2c(SCC(N)=O)nnc12)CC(C(C)(C)C)CC3 (stereo not drawn)    No

Next, consider the following compound.
Dear all, I need the recorded test outcome for COCCNC(=O)C1CCN(S(=O)(=O)N2CCC3(CC2)OCCO3)CC1 , thank you.
No

----------
molecular target: Short transient receptor potential channel 4 (Mus musculus) (UniProt Q9QUQ5); experiment: inhibitors of mouse TRPC4 channel, confirmation, cell-based, Fluo4, HEK293 TRPC4beta/mu-opioid (AID 2636); conditions: DAMGO, Fluo4 calcium flux, at 10 µM
Sequence (Q9QUQ5 whole entry, looked up): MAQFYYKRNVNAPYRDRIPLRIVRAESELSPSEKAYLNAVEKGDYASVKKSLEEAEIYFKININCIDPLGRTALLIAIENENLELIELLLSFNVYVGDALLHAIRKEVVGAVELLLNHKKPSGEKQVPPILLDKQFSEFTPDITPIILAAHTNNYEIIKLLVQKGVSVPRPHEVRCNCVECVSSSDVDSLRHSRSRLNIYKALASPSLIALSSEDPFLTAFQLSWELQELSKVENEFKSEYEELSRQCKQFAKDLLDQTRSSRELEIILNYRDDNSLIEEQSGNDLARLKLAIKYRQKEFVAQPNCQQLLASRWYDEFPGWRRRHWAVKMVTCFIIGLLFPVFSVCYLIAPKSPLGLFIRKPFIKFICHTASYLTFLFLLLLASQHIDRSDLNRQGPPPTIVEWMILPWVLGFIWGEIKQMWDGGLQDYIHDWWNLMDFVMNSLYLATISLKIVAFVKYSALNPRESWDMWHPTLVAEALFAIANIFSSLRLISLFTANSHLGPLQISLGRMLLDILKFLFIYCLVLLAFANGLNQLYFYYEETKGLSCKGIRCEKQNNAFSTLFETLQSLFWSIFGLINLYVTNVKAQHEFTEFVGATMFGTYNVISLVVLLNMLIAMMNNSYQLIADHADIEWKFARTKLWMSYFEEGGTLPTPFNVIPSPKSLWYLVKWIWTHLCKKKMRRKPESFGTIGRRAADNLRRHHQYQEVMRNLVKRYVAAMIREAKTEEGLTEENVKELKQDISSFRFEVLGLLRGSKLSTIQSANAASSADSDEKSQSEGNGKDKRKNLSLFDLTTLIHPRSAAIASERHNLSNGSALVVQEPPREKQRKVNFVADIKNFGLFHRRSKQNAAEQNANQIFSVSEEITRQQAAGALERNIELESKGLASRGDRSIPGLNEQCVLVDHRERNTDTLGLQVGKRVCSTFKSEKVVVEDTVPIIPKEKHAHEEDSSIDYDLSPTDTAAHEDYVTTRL
The source made the active and inactive calls.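 How the source made its calls: active means calcium signal cut by more than 3 SD below the full-agonist control yet still positive, in both repeats and the earlier primary screen; inactive means the rest.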
Pick one: active, inactive

Previously resolved entries follow.
OC1(c2ccccc2)CN(c2ccccc2)C2=[N+]1CCS2 (stereo not drawn)    active
CN(C)C(CNC(=O)C1CC(=O)N(Cc2ccccc2)C1)c1ccccc1 (stereo not drawn)    inactive
COc1ccc(N/C(C)=C2/C(=O)C(=O)N(CCO)C2c2ccc(Br)cc2)cc1 (stereo not drawn)    inactive
CC(c1cccnc1)N(CCN(C)C)C(=O)Nc1ccc(Cl)c(Cl)c1 (stereo not drawn)    inactive
CC1CN(C(=O)c2ccc(NS(=O)(=O)c3ccc(C(C)(C)C)cc3)cc2)CC(C)O1 (stereo not drawn)    inactive

How did this test come out for COc1ccc(-c2nn(-c3ccccc3)cc2CNCc2cccnc2)c(F)c1 ?
inactive

Which outcome was assigned to O=C(CNS(=O)(=O)c1ccc2ccccc2c1)NCCc1ccccn1 in this test?
inactive

Per the records of this test, what outcome belongs to Cc1nc(NCC(c2ccccc2)N(C)C)c2c(C)c(C)sc2n1 (stereo not drawn) ?
inactive

----------
molecular target: Potassium voltage-gated channel subfamily KQT member 1 (Homo sapiens) (UniProt P51787); assay: KCNQ1 potassium channel potentiators, confirmation, FluxOR thallium flux, CHO cells, duplicates (AID 493007); settings: KCNQ1 cell line, FluxOR thallium flux fluorescence, at 10 µM, % of reference activator effect, buffer zero;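 on outcome: cells depolarized by a potassium plus thallium sulfate stimulus after compound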
Active and inactive are the calls of the source.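 Rule for the calls: active = potentiation averaged over duplicate wells exceeding buffer-only control mean by more than 3 SD; inactive = the rest.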
Your response should consist of one outcome taken from active, inactive

Cc1ccc2nsnc2c1S(=O)(=O)Nc1cccc2nsnc12    active
Cc1ccc(C(=O)CC(=O)c2ccc(C)cc2O)cc1    inactive
COc1ccc(-c2csc(NC(=S)NC(=O)c3cccs3)n2)cc1Br    inactive
CC(=O)/C=C/c1ccc2ccccc2n1    inactive
O=Cc1ccc2noc(-c3ccc(Cl)cc3)c2c1    inactive

I would be grateful if you could indicate the recorded call for Cc1ccc(/C=C/C(=O)c2ccccc(=O)c2O)c(C)c1 .
active

Which outcome did this test record for the molecule CSc1ccc(/C=N/n2c(Cc3ccc(Br)cc3)n[nH]c2=S)cc1 ?
active

What call does the record list for CCCCN1C=CC(=C2C(=O)c3ccccc3C2=O)C=C1 ?
inactive

----------
molecular target: Potassium voltage-gated channel subfamily KQT member 1 (Homo sapiens); experiment: KCNQ1 potassium channel potentiators, confirmation, FluxOR thallium flux, CHO cells, duplicates (AID 493007); settings: KCNQ1 cell line, FluxOR thallium flux fluorescence, at 10 µM, % of reference activator effect, buffer zero
Active and inactive are the calls of the source.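 The calls were made as follows: active = potentiation averaged over duplicate wells exceeding buffer-only control mean by more than 3 SD; inactive = the rest.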
Result category, one only: active, inactive

# count of solved cases: 5
CN(C)S(=O)(=O)c1ccc(Cl)c(NC(=O)CN2CCCCCC2)c1    inactive
O=C(NC(=S)Nc1nc(-c2ccccc2)cs1)c1ccco1    active
CCOc1ccccc1NC(=O)C1CCCN(S(=O)(=O)c2ccccc2)C1 (stereo not given)    inactive
O=C(c1cc(COc2ccc3ncccc3c2)on1)N1CCCC(O)C1 (stereo not given)    inactive
Cc1cc(Cl)n2nc(C)c(-c3ccc(Cl)cc3)c2n1    active

Recorded test outcome, item Nc1nnc(SCC(=O)N2CCN(c3ccccc3)CC2)n1-c1ccccc1
inactive

Recorded call for CCOC(=O)Cn1nc(-c2ccc(F)cc2)cc(Cc2ccccc2)c1=O ?
inactive

Outcome logged for Cc1cccc(C(=O)NNC(=S)NC(=O)c2ccccc2)c1 in this assay:
active

Kindly provide the recorded test outcome for the following compound: CC1CCc2c(sc(NS(=O)(=O)c3ccccc3)c2C(=O)OC(C)C)C1 (stereo not given)
active

Can you look up the reported call for CCC(C)n1c(=S)[nH]c2c(sc3ccc([N+](=O)[O-])cc32)c1=O (stereo not given) for me?
active

----------
assay: thallium flux effects in parental CHO cells, counter-screen for KCNQ1 inhibitor project, cell-based, Tl flux (AID 588366); settings: parental CHO-K1, FluxOR thallium flux fluorescence ratio; at 10 µM; hits give low values; zero means no signal rise above baseline;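 further: ratio is peak minus minimum fluorescence divided by baseline fluorescence; actives read low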
The other results are listed elsewhere or left out.
Sorting guide: entries reporting fluorescence ratio (Tl flux) beneath 0.4 go in the MET pile, the rest go in the NOT MET pile.

The following compounds have reported results that may help.
CCOC(=O)N1CCN(C(=O)C2CCN(c3ncnc4c3sc3cccc(F)c34)CC2)CC1    NOT MET
Cc1cccc(CSc2ccc(-c3cccs3)nn2)c1    NOT MET
C=CCSc1nsc(NC(=O)Nc2cccc(C(C)=O)c2)n1    NOT MET

Field: next compound
Threshold test, fluorescence ratio (Tl flux) < 0.4: S=C(NCC1CCCO1)N1CCN(c2ccc(Cl)c(Cl)c2)CC1 (configuration not stated)
NOT MET

----------
tested on: TRPC4 (transient receptor potential cation channel C4), mouse; assay: TRPC4 inhibition by TRPC6 hit compounds, confirmation, selectivity assay for TRPC6 modulator project, cell-based, second screen, HEK293 TRPC4/mu-opioid, membrane potential dye (AID 488928); details: membrane potential dye fluorescence, at 10 µM, stimulated with maximal-effect DAMGO;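 further: TRPC4 counter screen for TRPC6 hits run under conditions tuned for TRPC6 not TRPC4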
The other results are listed elsewhere or left out. Active and inactive are the calls of the source.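 How the source made its calls: active means drop in membrane potential signal beyond 5 SD of the control wells in both duplicate plates; inactive means the rest.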
Select the matching outcome among Yes = active, No = inactive

Record request — test call for CCCCN(CCCC)CC(O)Cn1c2ccccc2c(=O)c2ccccc21 (stereo not drawn)
Yes

For O=C(O)c1ccc(NC(=O)c2ccc(COc3ccc(Cl)cc3)o2)cc1 , which call appears in the assay record?
No

----------
target: Potassium voltage-gated channel subfamily KQT member 2 (Rattus norvegicus); test: KCNQ2 channel inhibition, selectivity assay for KCNQ1 inhibitor project, cell-based (AID 651746); settings: KCNQ2 cells, FluxOR thallium flux fluorescence, at 10 µM;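 further: KCNQ2 expressed in CHO cells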
This is one part of the list. Active and inactive are the calls of the source.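 Rule for the calls: active = mean percent inhibition of the KCNQ2 thallium signal more than 5 SD above the buffer-only control wells; inactive = the rest.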
Hi there, use one of these labels in your reply, thanks! active, inactive

Study these solved cases before continuing.
COC(=O)c1cc(NC(=O)c2cc(C(C)(C)C)nn2Cc2cccc(C)c2)ccc1N1CCOCC1    active
Cc1cccc(N2CCN(C(=O)c3cnn4c(C(F)F)cc(-c5ccccc5)nc34)CC2)c1C    active
Cc1nc(N2CCN(c3ccccn3)CC2)c2c(C)c(C(=O)Nc3ccc(F)c(Cl)c3)sc2n1    active

Continue with the compound presented below.
Hi, do you know how Cc1cc(C)cc(NC(=O)NC2CCCCCCC2)c1 came out in this test?
inactive

----------
test system: transient receptor potential cation channel C4 beta (TRPC4), mouse; assay: activators of mouse TRPC4 channel, confirmation, cell-based, second round, Fluo4, HEK293 TRPC4beta/mu-opioid, 1 µM (AID 2461); details: Fluo4 calcium fluorescence, at 1 µM
The source made the active and inactive calls.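 How the source made its calls: active means primary screen active and over 50% activation in each of two duplicate runs; inactive means the rest.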
The reply should be one of these categories: active, inactive

As a guide, the following entries are already answered.
CCOc1ccccc1OCC(=O)Nc1cc(S(=O)(=O)N2CCCCC2)ccc1N1CCN(CC)CC1    inactive
CCN(c1ccccc1)S(=O)(=O)c1ccc(C(=O)N(CCCN(C)C)c2nc3cc4c(cc3s2)OCO4)cc1    inactive
CCCc1ccc(OCC(=O)NNC(=S)NC(=O)c2ccco2)cc1    inactive
Cc1ccccc1C(=O)NNC(=S)NC(=O)c1ccc(Cl)cc1Cl    inactive
Cc1ccc2[nH]c3c(=O)n(CCc4cnc[nH]4)cnc3c2c1    inactive

Please indicate how the test categorized Cc1ccccc1C(=O)Nc1c(C(=O)N(CCN(C)C)Cc2ccco2)oc2ccccc12 .
inactive

Would you mind telling me which call this test gave CC(=O)Nc1ccc(CN2CCCC(C(=O)c3ccc(C(F)(F)F)cc3)C2)cc1 (stereo not drawn) ?
active

Hi, do you know how CCCCC(=O)NNC(=S)NC(=O)c1ccc(C)cc1 came out in this test?
inactive

Outcome logged for COc1cc(OC)cc(C(=O)NC2CCCN(Cc3ccc(Cl)cc3)C2)c1 (stereo not drawn) in this assay:
inactive

----------
target: Potassium voltage-gated channel subfamily KQT member 1 (Homo sapiens) (UniProt P51787); test: KCNQ1 potassium channel potentiators, confirmation, FluxOR thallium flux, CHO cells, duplicates (AID 493007); conditions: KCNQ1 cell line, FluxOR thallium flux fluorescence, at 10 µM, % of reference activator effect, buffer zero
Calls of active or inactive are those of the source.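 How the source made its calls: active means potentiation averaged over duplicate wells exceeding buffer-only control mean by more than 3 SD; inactive means the rest.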
Give your call using only these classes: active, inactive

O=C1C(Nc2ccc(O)cc2)=C/C(=N/S(=O)(=O)c2cccs2)c2ccccc21    active
COc1cccc(C=NCC(C)N=Cc2cccc(OC)c2O)c1O (stereo unspecified)    inactive
COc1ccc(N(Cc2ccccc2)S(=O)(=O)c2cccc(C(=O)O)c2)cc1    inactive

Recorded test call requested for COc1cccc(N(C(=O)Cn2nnc(-c3ccc(C)o3)n2)C(C(=O)NC2CCCC2)c2ccncc2)c1 (stereo unspecified)
inactive

Give the logged outcome of this assay for the following compound: Cc1ccc(C2=NOC(=O)/C2=C\C=C\c2ccccc2)cc1
inactive

Identify the outcome logged in this assay for the compound shown: CC(C1CC2CCC1C2)n1c(-c2ccco2)n[nH]c1=S (stereo unspecified)
inactive

For this compound, state the assay outcome: COc1ccc2c(c1)cc(C)c1nnc(SCC(=O)N3CCN(C(=O)c4ccco4)CC3)n12
inactive

For CCC1CCCCN1C(=S)NC(=O)c1cccc([N+](=O)[O-])c1 (stereo unspecified) , which call appears in the assay record?
active

Name the outcome recorded for Cn1cccc1C(=O)NNC(=O)COc1ccccc1F in the assay.
inactive

How did this test come out for CCCOc1ccc(C(=O)NNC(=S)NC(=O)c2ccco2)cc1 ?
active

// return assay outcome for CCN(C(=O)c1cc2c(=O)[nH]c3ccc(C)cc3c2s1)c1ccccc1F
active
